Listed next: entries and their corresponding inhibition.
# tgt: NT-3 growth factor receptor (Homo sapiens)
# settings: at 1 µM;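 note: mean TRKC inhibition from the GSK PKIS kinase inhibitor set, with assays run by Nanosyn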
Quick note: unit goes after the number.

>  <smiles str>
N#Cc1ccc(Oc2nccc(-c3c(-c4ccc(F)cc4)ncn3C3CCNCC3)n2)cc1

>  <value kind>
inhibition

>  <readout value>
3.17%

$$$$
>  <smiles str>
O=C1Nc2ccc(I)cc2C1=Cc1cc(Br)c(O)c(Br)c1

>  <value kind>
inhibition

>  <readout value>
6.01%

$$$$
>  <smiles str>
Clc1ccc(CNc2nccc(-c3cnn4ncccc34)n2)cc1

>  <value kind>
inhibition

>  <readout value>
2.98%

$$$$
>  <smiles str>
c1ccc(-c2n[nH]cc2-c2ccnc(-c3ccc(OCCN4CCOCC4)cc3)c2)nc1

>  <value kind>
inhibition

>  <readout value>
3.05%

$$$$
>  <smiles str>
NC(=O)c1cc(-c2ccc(F)cc2)cc(-c2ccncc2)c1N

>  <value kind>
inhibition

>  <readout value>
2.92%

$$$$

Exercise: What inhibition value was documented for this molecule, "CN(C)c1ccc2c(c1)/C(=C/Nc1ccc(S(N)(=O)=O)cc1)C(=O)N2" ?
Solution: 73.1%

Exercise: What inhibition value was documented for this molecule, "CCS(=O)(=O)c1ccc(OC)c(Nc2ncc(-c3ccccc3Cl)o2)c1" ?
Solution: 12.5%

Exercise: What inhibition value was documented for this molecule, "COc1ccc(-c2ccc3c(NC(=O)C4CC4)n[nH]c3n2)cc1" ?
Solution: 5.04%

Exercise: What inhibition value was documented for this molecule, "COc1cc2ncn(-c3cc(OCc4ccccc4C(F)(F)F)c(C(C)=O)s3)c2cc1OC" ?
Solution: 4.16%

Exercise: What inhibition value was documented for this molecule, "O=C(Nc1n[nH]c2nc(-c3ccco3)ccc12)C1CC1" ?
Solution: 5.42%

Cited source for all entries: ChEMBL document CHEMBL1961873
